Hey, just so you know, these numbers are from PubChem BioAssay AID248.

test system: L1210 leukemia ip in BDF1 mice, survival T/C; assay: NCI In Vivo Anticancer Drug Screen. Data for tumor model L1210 Leukemia (intraperitoneal) in B6D2F1 (BDF1) mice; settings: endpoint: mean survival time; dose: 200.0 mg/kg/injection; schedule: Q04DX003 (ip); vehicle: saline; higher = longer survival
Inconclusive results and toxic doses are left out.
Listed below: T/C values for each entry.

Known T/C results, listed for orientation:
CC(=O)OCCNc1ccc([N+](=O)[O-])cc1[N+](=O)[O-] :: 103 % of control
COC(=O)C(NC(=O)C(NC(=O)Cc1ccccc1)SCc1ccccc1)=C(C)C (stereo not given) :: 89 % of control
CC1=C/C(=N/NC(N)=O)CC(C)C1 (stereo not given) :: 98 % of control
COC1=C(Nc2cccc(C)c2C)C(=O)C(OC)=C(Nc2cccc(C)c2C)C1=O :: 91 % of control
CC(=O)ONc1nc(C)c(CCC2OCCO2)c(SC(=N)N)n1 :: 105 % of control

State recorded T/C with L1210 leukemia ip in BDF1 mice, survival T/C, entry COC(=O)C1=C(C(=O)OC)C2(OC(C)=O)C=C(OC(C)=O)C1C(C)(C)C2 (stereo not given) , no comment. 103 % of control

Quote T/C with test system L1210 leukemia ip in BDF1 mice, survival T/C for O=CNCC(=O)O 94 % of control
